# assay_system: N-formyl peptide receptor 2 (Homo sapiens) (UniProt P25090)
# Sequence (P25090 whole entry, looked up): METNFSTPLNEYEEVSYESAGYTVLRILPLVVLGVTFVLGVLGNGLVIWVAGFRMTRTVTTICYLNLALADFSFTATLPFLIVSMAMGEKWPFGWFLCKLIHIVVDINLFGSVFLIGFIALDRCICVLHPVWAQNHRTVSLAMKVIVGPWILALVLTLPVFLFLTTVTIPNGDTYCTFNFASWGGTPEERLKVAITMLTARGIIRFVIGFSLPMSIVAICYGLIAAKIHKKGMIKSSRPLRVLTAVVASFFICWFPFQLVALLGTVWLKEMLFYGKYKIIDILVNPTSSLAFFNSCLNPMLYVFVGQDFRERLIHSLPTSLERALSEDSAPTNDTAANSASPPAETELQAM
# assay_name: FPRL1 fluorescent ligand binding inhibitors, primary screen, selectivity assay for FPR ligand SAR project, cell-based, flow cytometry, HTS counterscreen (AID 725)
# test_conditions: FPRL1-expressing cells, hits give high values, concentration not given here
In all, about 1,300 compounds went through this assay and fewer than 10 were called active. These entries were drawn from the full list.
// reported inhibition per item

Solved cases below.
COc1cc(C)nc(N(CCC(C)C)S(=O)(=O)c2ccc(C)cc2)n1
-7.7% (inactive)
CCCCn1c(=O)c2oc3ccccc3c2n(Cc2cccc(C)c2)c1=O
-15.7% (inactive)

Q: Which inhibition is reported for this compound? `CCOC(=O)c1c(NC(=O)c2cccc(Cl)c2)sc2c1CCCC2`
Ans: 3.1% (inactive)

Q: Which inhibition is reported for this compound? COc1ccccc1C1CC(=O)NC2=C1C(=O)CC(c1ccccc1Cl)C2 (stereo unspecified)
Ans: 0.3% (inactive)

Q: Which inhibition is reported for this compound? CCCOc1ccc(/C(O)=C2\C(=O)C(=O)N(CCN3CCOCC3)C2c2ccc(C(C)C)cc2)cc1C (stereo unspecified)
Ans: -8.4% (inactive)

Q: Which inhibition is reported for this compound? `COc1ccc(Br)cc1CNC(=O)Cn1ncc2ccccc21`
Ans: -17.2% (inactive)

Q: Which inhibition is reported for this compound? `O=C(c1ccc(F)cc1)N(Cc1ccco1)Cc1ccccc1Cl`
Ans: -1.7% (inactive)

Q: Which inhibition is reported for this compound? CCOC(=O)c1c(NC(=O)c2ccc(Cl)cc2)sc2c1CCC(C)C2 (stereo unspecified)
Ans: -4.7% (inactive)

Q: Which inhibition is reported for this compound? COc1ccccc1C1/C(=C(\O)c2ccccc2)C(=O)C(=O)N1c1ccc(C)c(Cl)c1 (stereo unspecified)
Ans: -1.5% (inactive)

Q: Which inhibition is reported for this compound? `Nc1nonc1-c1nc2ccccc2n1CC(=O)Nc1ccccc1Cl`
Ans: -1.8% (inactive)

Q: Which inhibition is reported for this compound? `COc1ccccc1NC(=O)CSc1nncn2c1cc1occc12`
Ans: 34.6% (active)

Q: Which inhibition is reported for this compound? Cc1cc(C)cc(N2C(=O)N(c3ccccc3Cl)C3CS(=O)(=O)CC32)c1 (stereo unspecified)
Ans: 2.6% (inactive)

Q: Which inhibition is reported for this compound? O=C1C(=O)N(CCN2CCOCC2)C(c2ccco2)/C1=C(\O)c1ccc(F)cc1 (stereo unspecified)
Ans: 5.5% (inactive)

Q: Which inhibition is reported for this compound? COCCN1C(=O)C(=O)/C(=C(/O)c2ccccc2)C1c1ccc(C(C)C)cc1 (stereo unspecified)
Ans: 3.7% (inactive)
